Target: RSV prefusion F, subtype A (preF, DS-Cav1 trimer) (Respiratory syncytial virus subtype A, UniProt P03420 26-513)
Assay: BLI, IgG apparent affinity
// reported Kd for each item listed

# binder, Kd [nM]
data = [
    ("ADI-21090 (antibody, V domains shown) VH: EVQLLESGGGLVKPGGSLRLSCAASGFTSGFTFSDFYMSWIRLTPGKGLEWISYISTHSTSTNYADSVRGRFIISRDDARNSLFLQMNSLRAEDTAVYYCAGYYYGSGSYFFDHWGQGTLVTVSS VL: ETTLTQSPATLSVSPGERATLSCRASQSVSSNVAWYQQKPGQAPRLLIYSASSRDTGIPVRFSGSGSGTEFTLSISSLQSEDFAVYYCQQYSDWPTFGQGTKVEIK", 1.17),
    ("ADI-21068 (antibody, V domains shown) VH: QVQLQESGPGLVKPSGTLSLTCVVSGGSIKSHNYWTWVRQPPGKGLEWVGEIYQSGRTNYNPSLNSRVTLSMDKSKNQLSLRLTSVTAADTAVYFCVGGGPFAPYYFQTWGQGTLVTVSS VL: QSVLTQPPSVSGAPGQRVTISCTGSSSNIGAGYDVHWYQQLPGTAPKLLIYNNNNRPSGVPDRFSGSKSGTSASLAITGLQAEDEADYYCQSYDTSLSGYVFGTGTKVTVL", 0.255),
    ("ADI-21073 (antibody, V domains shown) VH: EVQLVESGGGLVRPGRSLRLSCAASGFTFSMFSMNWVRQAPGKGLEWLAYIGGSGSTIDYANSVSGRFTISRDNAKNSLYLQMNSLRDEDTAVYYCARIGLQTYNSHSSSSSPARAFDVWGQGTTVTVSS VL: DIVLTQSPSSLSASVGDRVTITCRASQSIGRFLNWYQQKPGKAPKLLIYAASSLESGVPSRFSGSGSGTQFSLTISSLQPEDFTTYYCQQSYSTPTTFGGGTKVDIK", 4.06),
]

Values were extracted from patent US20260258115A1.
